# Test system: SK-MEL-28
# protocolSummary: SRB colorimetric cell growth inhibition assay, SK-MEL-28
# Format: cell-based
# setupConditions: MEL-28; cell killing (cytotoxic effect); read-out: LC50 MEL-28
# Experimental: The finality of these assays is to interrupt the growth of an “in vitro” tumor cell culture by means a continued exhibition of the cells to the sample to be testing. A colorimetric type of assay, using sulforhodamine B (SRB) reaction has been adapted for a quantitative measurement of cell growth and viability (following the technique described by P. A. Skehan, et al., J. Natl. Cancer Inst. 1990, 82, 1107-1112). […] The values for mean +/− SD of data from triplicate wells are calculated. […]
measuredAttribute: CC50 (µM)
Lab book: enter the figure in µM, no units written.

Value of CC50 reported for the compound COc1cc2ccn3c(c(-c4ccc(OC(=O)[C@@H](N)C(C)C)c(OC)c4)c4c5cc(OC)c(OC(=O)[C@@H](N)C(C)C)cc5oc(=O)c43)c2cc1OC [Compound 19] is 4.99

Record COc1cc2ccn3c(c(-c4ccc(OC(=O)[C@@H](N)C(C)C)c(OC)c4)c4c5cc(OC)c(OC(=O)[C@@H](N)C(C)C)cc5oc(=O)c43)c2cc1OC [Compound 14] , field CC50: 14

The reported value for COc1cc(-c2c3c4cc(OC)c(OC(=O)[C@@H](N)Cc5ccccc5)cc4oc(=O)c3n3ccc4c(OC(=O)[C@@H](N)Cc5ccccc5)c(OC)c(OC)cc4c23)ccc1OC(=O)[C@@H](N)Cc1ccccc1 in terms of CC50 is 4.6

COc1cc2ccn3c(c(-c4ccc(OC(=O)[C@@H](N)Cc5ccccc5)c(OC)c4)c4c5cc(OC)c(OC(=O)[C@@H](N)Cc6ccccc6)cc5oc(=O)c43)c2cc1OC [Compound 13] yielded CC50 of 12.4

Measured CC50 of COc1cc(-c2c3c4cc(OC)c(OC(=O)[C@H](C)N)cc4oc(=O)c3n3ccc4cc(O)c(OC)cc4c23)ccc1O.Cl : 1.44
